assayed_target: Cytochrome P450 2C19 (Homo sapiens)
test_details: qHTS Assay for Inhibitors and Substrates of Cytochrome P450 2C19 (AID 899); also: nearly all actives have a fitted effect of over 60% in size; also: potency is read from the fitted curve at half-maximal effect
measurement_parameters: recombinant CYP2C19, luciferin-H EGE luminescence; series mostly up to 11.4 µM
Inconclusive results are not listed. The source made the active and inactive calls. Calls follow the shape of the dose curve; as a rule, active = well fitted inhibition curve with a large enough effect; inconclusive = small, poorly fitted or top-dose-only effect; inactive = no such curve, though single readings can be large or run the other way.
recorded_endpoint: Potency

>>> print(df.to_string())
                                 test_smiles     value_observed
 0  COc1ccc([C@@H](Nc2ncccn2)c2cc3c(cc2O)OCO3)cc1  0.316 µM (active)
 1        N#C[C@@H](N=Nc1ccccc1C(=O)O)C(N)=O           inactive
 2  Cc1ccc(S(=O)(=O)O[C@H]2C[C@@H](C(C)(C)C)CC[C@@H]2c2ccccc2)cc1   3.16 µM (active)
 3  CCc1cccc2c3c([nH]c12)[C@](CC)(CC(=O)O)OCC3           inactive
 4                    c1cc(CSSCc2ccncc2)ccn1   1.26 µM (active)
 5  O=C(C[C@@H]1C=Cc2ccccc2N1C(=O)c1ccccc1)c1ccccc1  0.501 µM (active)
 6             NNC(=O)CCc1ccc2ccc3ccccc3c2c1  0.251 µM (active)
 7  CCC[C@@H]1O[C@@H]2C[C@@H]3[C@@H]4CCC5=CC(=O)C=C[C@@]5(C)[C@H]4[C@H](O)C[C@@]3(C)[C@@]2(C(=O)CO)O1           inactive
 8      CN(CCc1ccccn1)c1ccc2c(c1)Cc1ccccc1-2  0.794 µM (active)
 9  Nc1c(S(N)(=O)=O)cc(S(N)(=O)=O)cc1S(N)(=O)=O           inactive
10    CN(C)CCCN1c2ccc3ccccc3c2Sc2cccc(Cl)c21   5.01 µM (active)
11  C[C@H](C(=O)c1ccccc1)[C@@H](c1ccccc1)N1CCOCC1   1.58 µM (active)
12    O=C(C[C@@H](c1ccccc1)N1CCCCC1)c1ccccc1   2.51 µM (active)

----------
Below, each entry is listed alongside its reported caspase-3 activation.
test_details: Cellular Toxicity (caspase-3) Hek293 (AID 664);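 also: cells exposed to compound for 16 h at 37 °C before readout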
measurement_parameters: HEK293 caspase-3 activation, DMSO = 0%, 100 µM tamoxifen = 100%; at 92.2 µM (top of the series)
Results filed as inconclusive are left out.
recorded_endpoint: caspase-3 activation (%)

>>> print(df.to_string())
                                test_smiles  value_observed
0            Cc1c2ccccc2c(C)c2c1ccc1ccccc12            2.33
1  Cc1c(C(=O)O)c(O)cc2c1C(=O)c1c(O)c([C@H]3O[C@H](CO)[C@@H](O)[C@H](O)[C@H]3O)c(O)c(O)c1C2=O           -3.17
2                 CCCCCCCCOc1ccc(C(=O)O)cc1           -2.79
3       O=[N+]([O-])c1cc(N(CCO)CCO)ccc1NCCO           -3.81
4        O=[N+]([O-])c1cc(Cl)c(Cl)c(Cl)c1Cl             2.6

----------
Measured activity change, negative = inhibition accompanies every entry in the list below.
test_details: AP1 Signaling Pathway (AID 357);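 also: ME-180 reporter cells stimulated with EGF at its EC50 level; % is scaled to controls: 0 for no effect and ±100 for the full control effect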
measurement_parameters: ME-180 AP-1-bla reporter, EGF-induced, beta-lactamase ratio, 5 h; at 7.69 µM (top of the series) unless noted
Records with an inconclusive call do not appear. Activity calls are given as the source filed them. Calls follow the shape of the dose curve; as a rule, active = well fitted curve in either direction with a large enough effect (not every such curve was filed as active); inconclusive = small, poorly fitted or top-dose-only effect, or another doubt; inactive = flat fitted curve, though single readings scatter.

test_smiles	activity change, negative = inhibition
COc1ccc(CN[C@H](C)C(=O)O)cc1	-9.23% (inactive)
N=C(N)[C@H](N=Nc1ccccc1)C(N)=O	20.5% (inactive)
O=C1C=CC(=Nc2cccc3c(N=C4C=CC(=O)O4)cccc23)O1	5.25% (inactive)
Nc1ccn([C@H]2CC[C@H](CO)O2)c(=O)n1	15.8% [at 38 µM] (inactive)
NC(=O)C1=CN([C@@H]2O[C@@H](COP(=O)(O)OP(=O)(O)OC[C@@H]3O[C@H](n4cnc5c(N)ncnc54)[C@@H](OP(=O)(O)O)[C@@H]3O)[C@H](O)[C@@H]2O)C=CC1	7.61% [at 38 µM] (inactive)
CC(CC(=O)O)(CC(=O)O)C(=O)O	-0.949% (inactive)
C=CCNS(=O)(=O)c1ncnc2nc[nH]c12	-7.02% (inactive)
CC(C)(C)c1ccc(NS(=O)(=O)c2ccc(N)cc2)cc1	3% (inactive)
C[N+]1([C@H](CO)Cc2c[nH]c3ccccc23)Cc2ccccc2C1	-7.62% (inactive)
NC(=O)C[C@H](N)C(N)=O	-1.63% (inactive)
C[N@@+]1(Cc2ccc(Cl)c(Cl)c2)CCC[C@@H]1c1ccc[n+](Cc2ccc(Cl)c(Cl)c2)c1	-3.2% (inactive)
O=P(O)(O)O[C@@H]1O[C@H](CO)[C@@H](O)[C@H](O)[C@@H]1O	4.24% (inactive)
Cc1ncc(CN=Cc2ccc(Cl)cc2)c(N)n1	-0.312% (inactive)
CC(C)(C)CNCCO	-7.33% (inactive)
O=C(O)CSc1ccn(Cc2ccccc2)c1	-4.91% (inactive)
NS(=O)(=O)c1cc(Br)c(N=Nc2ccc(O)c3ncccc23)c(Br)c1	-0.828% (inactive)

----------
The entries below come with measured activity, negative = inhibition values attached.
test_details: Stat Signaling Pathway (AID 446);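 also: ME-180 cervical cancer cells given 40 pM IL-6 alongside compound; SIE-controlled beta-lactamase reporter measured as 460/530 nm FRET emission ratio; % is scaled to controls: 0 for no effect and ±100 for the full control effect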
measurement_parameters: ME-180 (cervical carcinoma) SIE beta-lactamase reporter, IL-6 stimulated, 5 h; at 7.69 µM (top of the series) unless noted
Inconclusive results are not listed.
recorded_endpoint: activity, negative = inhibition (%)

In [3]: df
Out[3]:
                                test_smiles                recorded_endpoint  value_observed
0  O=C1C2=C(Nc3cc([N+](=O)[O-])ccc3N2)O[C@@H]1c1c[nH]c2ccc(COc3ccccc3)cc12  activity, negative = inhibition           0.333
1              Cc1[nH]c(C)c(CN(C)C)c1CN(C)C  activity, negative = inhibition            12.9
2  COc1ccc([C@@H](Nc2ccccn2)c2cc(C(C)(C)C)cc(C(C)(C)C)c2O)cc1  activity, negative = inhibition           -15.2

----------
A collection of compounds and their measured Potency
assayed_target: Cytochrome P450 1A2 (Homo sapiens)
test_details: p450-cyp1a2 (AID 410); also: potency is read from the fitted curve at half-maximal effect
measurement_parameters: recombinant CYP1A2, luciferin-ME demethylation, luminescence; series mostly up to 11.4 µM
Method: The P450 gene superfamily is involved in metabolism and the clearance of xenobiotics. This assay used human CYP1A2 to measure the demethylation of luciferin 6' methyl ether (Luciferin-ME; Promega-Glo) to luciferin. The luciferin is then measured by luminescence after the addition of a luciferase detection regeant. Luciferin-ME concentration in the assay was equal to its Km for CYP1A2. NCGC Assay Protocol Summary: […]
Results filed as inconclusive are left out. Activity calls are given as the source filed them. Calls come from the whole dose curve.
recorded_endpoint: Potency

                                test_smiles  recorded_endpoint    value_observed
0           NC(N)=N/N=C(\c1ccc(Cl)cc1)C1CC1            Potency   794 nM (active)
1    N#C/C(=C\N1CCNC1=S)C(=O)c1ccc2ccccc2c1            Potency  1580 nM (active)
2     Fc1cccc(CSc2ncnc3c2ncn3[C@H]2CCCS2)c1            Potency   501 nM (active)
3    CN(C)CCCN1c2ccc3ccccc3c2Sc2cccc(Cl)c21            Potency  1000 nM (active)
4  CN(Cc1cc(C(C)(C)C)cc(Br)c1O)Cc1cc(C(C)(C)C)cc(Br)c1O            Potency  3160 nM (active)

----------
assayed_target: Nuclear receptor ROR-gamma (Homo sapiens) (UniProt P51449)
Sequence (P51449 whole entry, looked up): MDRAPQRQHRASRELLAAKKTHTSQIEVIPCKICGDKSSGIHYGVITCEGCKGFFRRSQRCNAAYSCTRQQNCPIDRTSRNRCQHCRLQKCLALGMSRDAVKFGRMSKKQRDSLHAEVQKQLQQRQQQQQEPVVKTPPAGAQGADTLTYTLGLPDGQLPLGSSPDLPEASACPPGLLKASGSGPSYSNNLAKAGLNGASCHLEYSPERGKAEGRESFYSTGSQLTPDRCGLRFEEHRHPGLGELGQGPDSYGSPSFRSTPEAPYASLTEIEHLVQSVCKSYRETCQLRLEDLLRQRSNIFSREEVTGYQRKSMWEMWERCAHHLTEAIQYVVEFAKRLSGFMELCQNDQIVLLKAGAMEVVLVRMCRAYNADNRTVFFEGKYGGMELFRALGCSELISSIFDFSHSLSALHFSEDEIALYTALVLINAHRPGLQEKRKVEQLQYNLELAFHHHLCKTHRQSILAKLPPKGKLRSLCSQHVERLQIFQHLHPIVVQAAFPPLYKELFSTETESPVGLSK
test_details: qHTS assay for small molecule antagonists of the retinoid-related orphan receptor gamma (ROR-gamma) signaling pathway (AID 651802); also: nearly all actives have a fitted effect of over 60% in size
measurement_parameters: ROR-gamma antagonist cell reporter assay; series mostly up to 92.2 µM
Records with an inconclusive call do not appear. The source made the active and inactive calls. Calls follow the shape of the dose curve; as a rule, active = well fitted inhibition curve with a large enough effect; inconclusive = small, poorly fitted or top-dose-only effect; inactive = no such curve, though single readings can be large or run the other way.
Labels: active, inactive

                                test_smiles     label
0                                C=CC(=O)CC  inactive
1                             C/C(Cl)=C/CCl  inactive
2  Cc1c(C(=O)O)c(O)cc2c1C(=O)c1c(O)c([C@H]3O[C@H](CO)[C@@H](O)[C@H](O)[C@H]3O)c(O)c(O)c1C2=O    active
3              CCN(CC)c1ccc2c(C)cc(=O)oc2c1  inactive

----------
assayed_target: Glucocorticoid receptor (Homo sapiens) (UniProt P04150)
Sequence (P04150 whole entry, looked up): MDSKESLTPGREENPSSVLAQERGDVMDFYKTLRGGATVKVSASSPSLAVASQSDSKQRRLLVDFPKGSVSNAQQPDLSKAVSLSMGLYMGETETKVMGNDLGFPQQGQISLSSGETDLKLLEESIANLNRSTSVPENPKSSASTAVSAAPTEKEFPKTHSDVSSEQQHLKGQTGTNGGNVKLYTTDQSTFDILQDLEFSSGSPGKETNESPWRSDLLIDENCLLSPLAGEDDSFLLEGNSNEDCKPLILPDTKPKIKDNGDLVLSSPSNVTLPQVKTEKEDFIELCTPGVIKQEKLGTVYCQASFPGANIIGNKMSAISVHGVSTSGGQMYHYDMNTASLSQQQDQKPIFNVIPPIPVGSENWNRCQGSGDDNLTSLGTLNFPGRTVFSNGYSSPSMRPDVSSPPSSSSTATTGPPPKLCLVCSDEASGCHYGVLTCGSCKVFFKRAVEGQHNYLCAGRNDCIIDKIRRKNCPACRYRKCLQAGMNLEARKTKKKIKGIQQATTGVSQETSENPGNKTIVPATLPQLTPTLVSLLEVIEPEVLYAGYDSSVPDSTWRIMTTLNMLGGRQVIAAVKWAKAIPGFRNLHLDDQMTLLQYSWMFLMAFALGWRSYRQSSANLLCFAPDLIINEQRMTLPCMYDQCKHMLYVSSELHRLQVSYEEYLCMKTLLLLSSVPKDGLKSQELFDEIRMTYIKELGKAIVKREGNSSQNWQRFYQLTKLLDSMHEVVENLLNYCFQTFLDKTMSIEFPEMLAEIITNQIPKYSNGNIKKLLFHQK
test_details: qHTS assay for small molecule agonists of glucocorticoid receptor signaling (AID 588532);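 also: 100% = dexamethasone at 0.1 µM and 0% = DMSO only wells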
measurement_parameters: HeLa MMTV-bla, beta-lactamase ratio, agonist, 18 h; active compounds read high; percent of dexamethasone control, DMSO zero
Records with an inconclusive call do not appear.
We begin with a simple list: items and their reported activation.
recorded_endpoint: activation (%)

>>> df
                             molecule  recorded_endpoint  value_observed
0                    C=C(C#N)C(=O)OCC         activation          -0.945
1                     OCC(CO)(CBr)CBr         activation           -3.06
2  CCCCC(CC)COCCCN (stereo not drawn)         activation           -4.42
